Recorded GI50 values for a group of compounds are listed next.
Test system: PC-3
Assay summary: NCI tumour cell line growth inhibition, 48 h
Active and inactive are the calls of the source. Cut-off read from the data, not from the text of the source: active = GI50 up to about 1.1 µM and inactive = higher.

Sample records with GI50:
{"Compound": "NCCCCCCn1c(-c2ccc(Br)cc2)cs/c1=N\\c1ccccc1", "Readout label": "GI50", "Reading": "5.86 µM (inactive)"}
{"Compound": "Nc1nc(N)c2nnn(C[C@H]3CC[C@@H](CO)C3)c2n1", "Readout label": "GI50", "Reading": "> 100 µM (inactive)"}

Note to self: GI50 recorded for CCOC(=O)c1ccc(-c2cc(C)[nH]n2)[nH]1 was > 100 µM (inactive)

Note to self: GI50 recorded for CC1(C)CC2C(C1=O)C1(C)CCCC2(C)C1=O (stereo unspecified) was > 100 µM (inactive)

# GI50 of S=C(Nc1ccc2c(c1)Cc1ccccc1-2)Nc1ccc2c(c1)Cc1ccccc1-2 = > 100 µM (inactive)

Lab note: measured GI50 of CC1=CC(=O)/C(=C/NC(=S)C(N)=S)C(=O)O1 was > 100 µM (inactive)

Documented GI50 of COc1cc(/C=C2\N=C(c3ccccc3)N(/N=C3\C(=O)Nc4ccccc43)C2=O)cc(OC)c1OC : > 100 µM (inactive)

Sample COc1ccc(/C(=N\Nc2ccccn2)c2ccccn2)cc1 ; GI50 observed: 0.0306 µM (active)

In plain terms, CC#CC#C/C=C1\C=CC2(OC=CC2OC(C)=O)O1 (stereo unspecified) has a documented GI50 of 28.2 µM (inactive)

compound COc1ccc(-n2cnc3c(NC(Cc4ccccc4)C(=O)O)ncnc32)cc1 (stereo unspecified) , GI50 observed: > 100 µM (inactive)

The compound identified as COc1cccc(CCn2c(N)c(C(=O)O)c3ccc([N+](=O)[O-])cc3c2=O)c1 registered its GI50 at 29.2 µM (inactive)

Record O=C1/C(=C/c2ccc(OC(=O)c3ccc(Cl)cc3)cc2)CCC/C1=C\c1ccc(OC(=O)c2ccc(Cl)cc2)cc1 , field GI50: > 100 µM (inactive)

Record CC1(C)O[C@H](C(=O)O)[C@@H](C(=O)O)O1 , field GI50: > 100 µM (inactive)

GI50 recorded for this compound, Fc1nc(-c2c3ccccc3c3sc4ccccc4n23)nc(N2CCOCCOCCOCCOCC2)n1 , is > 100 µM (inactive)

// field: GI50; key: COc1cc(C2C=C(c3ccccc3)Oc3cc4c(cc32)OCO4)cc(OC)c1OC (stereo unspecified) ; value = 0.354 µM (active)
